Provenance of the data: the EternaBench riboswitch data

Test system: MS2 coat protein
ASSAY_EXPLANATION: apparent Kd, MS2 coat protein; higher = weaker binding; RNA-MaP array; theophylline 2 mM where present
CONDITION_INFO: designed as: ON switch for theophylline; no ligand
READOUT: apparent Kd

>>> print(df.to_string())
                              sequence_chain  value_measured
 0  AAACAUGAGGAUCACCCAUGUUCAAUAGAUACCAGUGAUACGGUGCACCCUUGGCAGCUGUUGCUGAGUGAUGGUUCCCUCGGUA           29 nM
 1  AGUCUAUGGAGAGAUACCAGUGAGAGCCAUAGACAUGAGGAUCACCCAUGUGACAUGGAUCACCCUUGGCAGCUCAACGAGCUCU          126 nM
 2  AGUGUUGUAACUGAUACCAGACCUUUGCUUAUACAUGAGGAUCACCCAUGUAAAAUGGCGGUCCCUUGGCAGCAGAGAAGACGCA         40.1 nM
 3  AAUAUAAGUGUAAUUUUAUGUAUCUCUGAUACCAGACCCUCAUGUGUCCCUUGGCAGCAGUAACAUGAGGAUCACCCAUGUAAAA         65.4 nM
 4  AUAACAUGAGGAUCACCCAUGUAGAGUGAUACCAGACUAUGUAAUGUCCCUUGGCAGCACAAGUAAAGUUAUAAAUAAUGAUAGA          157 nM
 5  GUAAAUGUGACGGAUACCAGCGUGUUGUAGAACAUGAGGAUCACCCAUGUAGUGAUCAUGCGCCCUUGGCAGCUGGUAUGUUUGU          474 nM
 6  UAUAAAAUAACAGAUACCAGCGUGUUAUAAAACAUGAGGAUCACCCAUGUAGUGAUCAAGCGCCCUUGGCAGCUGGUAUUUUAUA          101 nM
 7  ACGACGCAUAGUGAUACCAGCACAACAUGAGGAUCACCCAUGUCACUUAUGUAGUAAUAAUGCCCUUGGCAGCACUAUGCGUCAG         55.2 nM
 8  ACGCUGAUUGAUUACAAUCAGCGAAAAGAUACCAGUGGGUAAUCCCACCCUUGGCAGCUUAAACAUGAGGAUCACCCAUGUGGUA         74.5 nM
 9  UGCAUCAUAAUCAUGUUGGUGCUAGGUGAUACCAGCAUCGAAAGAUGCCCUUGGCAGCACCAACAUGAGGAUCACCCAUGUAAUA          114 nM
10  UAUAUAAUAACAGAUACCAGCGUGUUAUAAAACAUGAGGAUCACCCAUGUAGUGAUCAAGCGCCCUUGGCAGCUGGUAUUAUAUA         72.2 nM
11  UAUAACAUGAGGAUCACCCAUGUAAGUGAUACCAGAUAAAUAAUAGUCCCUUGGCAGCAUAUUGGGAAAGUGUAUAAUAUAUAUU         52.2 nM
12  ACGACAUGAGGAUCACCCAUGUAAGGUGAUACCAGACGAAGUAAUGUCCCUUGGCAGCACAAGCAUAGUUGCGAUUAUUGUACGA          438 nM
13  UCUUUCUAUGUAGAUACCAGCAUGUUAUAUUUCUAAUGACAUGAGGAUCACCCAUGUAAAUGCCCUUGGCAGCUGCGUUUUCUUU         16.9 nM
